tested on: Mycobacterium tuberculosis; test: microbe, parasite or virus in culture; conditions: H37Rv, 168 h
# MIC values compiled below
I'd appreciate it if you wrote the number followed by its unit.

| molecule | MIC |
| --- | --- |
| CN(C(=O)NC1C2CC3CC(C2)CC1C3)c1ccc(F)c(F)c1F (configuration not stated) | 6 µg/mL |
| CCCNC(=O)NC1C2CC3CC(C2)CC1C3 (configuration not stated) | 12.5 µg/mL |
| O=C(Nc1ccc(F)c(F)c1F)OC1C2CC3CC(C2)CC1C3 (configuration not stated) | 6 µg/mL |
| NNC(=O)c1ccncc1 | 0.01 µg/mL |
| O=C(NC1CCCCC1)NC1C2CC3CC(C2)CC1C3 (configuration not stated) | 10 µg/mL |

Query: Indicate the recorded MIC value for this molecule: Fc1ccc(NC(=S)NC2C3CC4CC(C3)CC2C4)c(F)c1F (configuration not stated)
Response: 0.8 µg/mL

Query: Query MIC for `CCCCCCCNC(=O)Nc1ccc(F)c(F)c1F`
Response: 6 µg/mL

Query: In one line, give reported MIC of the entry `CC[C@@H](CO)NCCN[C@@H](CC)CO` .
Response: 0.01 µg/mL

Query: Specify reported MIC for the molecule shown: CCCCCCNC(=O)NC1C2CC3CC(C2)CC1C3 (configuration not stated)
Response: 0.01 µg/mL

====

The following molecules are shown together with reported MIC values.
test system: Staphylococcus aureus; test: Antibacterial activity against Staphylococcus aureus; type: functional

Example entries begin here.
| molecule | MIC |
| --- | --- |
| O=C(NCCc1ccccc1)NC1C2CC3CC(C2)CC1C3 (stereo not drawn) | > 200 µg/mL |
| CC(C)NC(=O)NC1C2CC3CC(C2)CC1C3 (stereo not drawn) | > 200 µg/mL |
| CCCCCCCNC(=O)Nc1cccc(C(F)(F)F)c1F | > 200 µg/mL |
| N#Cc1ccc(NC(=O)NC2C3CC4CC(C3)CC2C4)cc1 (stereo not drawn) | > 200 µg/mL |
| CC1(C)C2CCC(CNC(=O)Nc3ccc(F)c(F)c3F)C1C2 (stereo not drawn) | 3.13 µg/mL |
| CC(=O)c1cccc(NC(=O)NC2C3CC4CC(C3)CC2C4)c1 (stereo not drawn) | > 200 µg/mL |
| CC(CCc1ccccc1)NC(=O)Nc1cccc(C(F)(F)F)c1F (stereo not drawn) | > 200 µg/mL |

Query: Please list MIC recorded for the molecule CC1C(NC(=O)Nc2ccc(F)c(F)c2F)CC2CC1C2(C)C (stereo not drawn)
Response: 3.12 µg/mL

====

molecular target: Hydrolase, alpha/beta hydrolase fold family (Mycobacterium tuberculosis) (UniProt O69638); experiment: Inhibition of Mycobacterium tuberculosis recombinant EphE expressed in Escherichia coli BL21 using CMNPC as substrate at 10 nM after 30 mins by fluorescent assay relative to control
Sequence (O69638 as listed by the source): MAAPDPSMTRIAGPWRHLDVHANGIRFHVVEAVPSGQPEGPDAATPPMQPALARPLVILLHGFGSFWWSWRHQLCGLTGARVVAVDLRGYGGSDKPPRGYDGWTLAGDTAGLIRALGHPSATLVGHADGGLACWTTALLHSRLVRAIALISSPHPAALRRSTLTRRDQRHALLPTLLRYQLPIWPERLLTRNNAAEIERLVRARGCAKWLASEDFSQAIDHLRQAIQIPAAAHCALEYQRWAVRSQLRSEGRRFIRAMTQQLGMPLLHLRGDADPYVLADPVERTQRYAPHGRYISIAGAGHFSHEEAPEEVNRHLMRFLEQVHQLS
As shown below, each of these compounds has a reported inhibition value.
Numeric only. Scale: %

Recorded results for 3 compounds are shown here.
| compound | measured on | value |
| --- | --- | --- |
| CCOCCNC(=O)NC12CC3CC(CC(C3)C1)C2 | Hydrolase, alpha/beta hydrolase fold family (Mycobacterium tuberculosis) (UniProt O69638) | 17.6 |
| O=C(Nc1ccc(F)c(F)c1F)NC1CCCCCCC1 | Hydrolase, alpha/beta hydrolase fold family (Mycobacterium tuberculosis) (UniProt O69638) | 91.6 |
| CC(CCc1ccccc1)NC(=O)Nc1cccc(C(F)(F)F)c1F (configuration not stated) | Hydrolase, alpha/beta hydrolase fold family (Mycobacterium tuberculosis) (UniProt O69638) | 63.9 |

# evaluate next
Query: Entry CCCNC(=O)NC1C2CC3CC(C2)CC1C3 (configuration not stated) needs its inhibition filled in; supply it.
Response: 73.6

====

test system: Mycobacterium tuberculosis; experiment: microbe, parasite or virus in culture; settings: H37Rv, 168 h
This listing pairs compounds with measured log10 of MIC.
Heads up, the numbers here are log10 of MIC in µg/mL units.

Query: Supply log10 of MIC value. Item: `Cc1ccc(NC(=O)NCC23CC4CC(CC(C4)C2)C3)cc1Cl`
Response: -1.70

====

Reported IC50 values for a set of compounds
tested on: Vero; assay: Cytotoxicity against african green monkey Vero cells after 72 hrs by MTT assay; format: cell-based; settings: Chlorocebus sabaeus

// below: answered compounds
| compound | IC50 |
| --- | --- |
| CC(C)(C)NC(=O)NC1C2CC3CC(C2)CC1C3 (stereo not drawn) | 372 µg/mL |
| CCCCCCCNC(=O)Nc1ccc(F)c(F)c1F | 130 µg/mL |
| CC(C)NC(=O)NC1C2CC3CC(C2)CC1C3 (stereo not drawn) | 23.4 µg/mL |
| O=C(Nc1ccc(F)c(F)c1F)NC12CC3CC(CC(C3)C1)C2 | 726 µg/mL |
| CC1C(NC(=O)Nc2ccc(F)c(F)c2F)CC2CC1C2(C)C (stereo not drawn) | 16 µg/mL |
| COc1ccc(NC(=O)NC2C3CC4CC(C3)CC2C4)cc1 (stereo not drawn) | 13.4 µg/mL |

Query: Please report the measured IC50 for CCCCCCCNC(=O)NC1C2CC3CC(C2)CC1C3 (stereo not drawn)
Response: 20 µg/mL

Query: Please give measured IC50 of the following entry: O=C(NCc1ccccc1)NC1C2CC3CC(C2)CC1C3 (stereo not drawn)
Response: 4.2 µg/mL

====

MIC by entry:
tested on: Mycobacterium tuberculosis; assay: microbe, parasite or virus in culture; details: H37Rv, 168 h
Field: numeric (µg/mL). Do not append units.

Worked cases, MIC given:
| compound | value |
| --- | --- |
| COc1ccc(NC(=O)NC2C3CC4CC(C3)CC2C4)cc1 (stereo not drawn) | 0.4 |
| Cc1ccc(NC(=O)NC2CCCCCCC2)cc1Cl | 0.01 |

Query: Fill in reported MIC for this entry: O=C(NCc1ccccc1)NC1C2CC3CC(C2)CC1C3 (stereo not drawn)
Response: 3.1

====

target: Hydrolase, alpha/beta hydrolase fold family (Mycobacterium tuberculosis) (UniProt O69638); assay: Inhibition of Mycobacterium tuberculosis recombinant EphE expressed in Escherichia coli BL21 using CMNPC as substrate at 10 nM after 30 mins by fluorescent assay relative to control
experimental readout: inhibition (%)
// units = %; emit number, no label

Example entries begin here.
| molecule | experimental readout | unit symbol | value |
| --- | --- | --- | --- |
| COC(=O)c1ccc(NC(=O)NC23CC4CC(CC(C4)C2)C3)cc1O | inhibition | % | 79.5 |
| CCCOCCNC(=O)NC12CC3CC(CC(C3)C1)C2 | inhibition | % | 35 |
| O=C(NC1CCCCC1)NC1C2CC3CC(C2)CC1C3 (stereo not drawn) | inhibition | % | 70.2 |
| CCCCCNC(=O)NC1C2CC3CC(C2)CC1C3 (stereo not drawn) | inhibition | % | 90.5 |

Query: Read off the recorded inhibition for CCCCCCNC(=O)NC1C2CC3CC(C2)CC1C3 (stereo not drawn)
Response: 100

Query: Quote inhibition reported for `O=C(Nc1ccc(F)c(F)c1F)NC1CCCCC1` please.
Response: 65.6

Query: # return recorded inhibition for input `CC(C)CCOc1ccc(NC(=O)Nc2ccc(OCCC(C)C)cc2)cc1`
Response: 88.8

Query: Identify the reported inhibition for the following entry. CN(C(=O)NC1C2CC3CC(C2)CC1C3)c1ccc(F)c(F)c1F (stereo not drawn)
Response: 22.8

====

tested on: Mycobacterium tuberculosis; test: microbe, parasite or virus in culture; conditions: H37Rv, 168 h
Recorded log10 MIC values for a group of molecules are listed next.
Please note: log10 values; quantity MIC; unit µg/mL.

| molecule | measured on | log10 MIC |
| --- | --- | --- |
| CC(C)NC(=O)NC1C2CC3CC(C2)CC1C3 (stereo not given) | Mycobacterium tuberculosis | 1.70 |

Query: For `COCCCNC(=O)NC12CC3CC(CC(C3)C1)C2` , write its log10 MIC.
Response: 2.00

Query: Note log10 MIC for the molecule shown: `O=C(NCc1cccc(Cl)c1)Nc1cccc(C(F)(F)F)c1F`
Response: 0.20

Query: Look up and state reported log10 MIC for CC(=O)c1cccc(NC(=O)NC2C3CC4CC(C3)CC2C4)c1 (stereo not given)
Response: -1.00

Query: Given the molecule CN(C(=O)N(C)C1C2CC3CC(C2)CC1C3)c1ccc(F)c(F)c1F (stereo not given) , write its reported log10 MIC.
Response: 1.08

====

tested on: Vero; experiment: Cytotoxicity against african green monkey Vero cells after 72 hrs by MTT assay; format: cell-based; details: Chlorocebus sabaeus
Threshold 300 µg/mL: IC50 strictly smaller gives yes (1), otherwise no (0).

| compound | answer label |
| --- | --- |
| Cc1ccc(NC(=O)NCC23CC4CC(CC(C4)C2)C3)cc1Cl | yes (1) |
| O=C(NC1CCCCC1)NC1C2CC3CC(C2)CC1C3 (stereo not given) | yes (1) |
| CCCOCCNC(=O)NC12CC3CC(CC(C3)C1)C2 | yes (1) |
| CC1(C)C2CCC(CNC(=O)Nc3ccc(F)c(F)c3F)C1C2 (stereo not given) | yes (1) |

# evaluate next
Query: Just wondering, is IC50 of `Cc1ccc(NC(=O)NCc2cccc(F)c2)cc1Cl` below 300 µg/mL?
Response: no (0)

Sourced from ChEMBL document CHEMBL1817626
